assayed target: RalB-GDP (Homo sapiens, UniProt P11234, Q72L)
Construct: made in house
Sequence (P11234 whole entry Q72L): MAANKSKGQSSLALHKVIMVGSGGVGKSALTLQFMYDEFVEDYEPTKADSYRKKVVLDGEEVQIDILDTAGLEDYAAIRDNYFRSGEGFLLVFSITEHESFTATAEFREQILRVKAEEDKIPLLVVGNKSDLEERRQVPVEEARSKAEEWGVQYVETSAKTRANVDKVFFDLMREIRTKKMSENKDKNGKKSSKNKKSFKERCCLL
experimental details: Surface Plasma Resonance (SPR) binding, Biacore 3000
condition summary: RalB immobilized on CM5 chip; PBS pH 7.4, 1 μM GDP, 2 mM MgCl2, 3% DMSO
pKd: −log10 of the molar value.
property label: pKd

compound="Cc1nn(C)c2c1C(c1ccc(C(F)(F)F)cc1)C(C#N)=C(N)O2 (stereo not shown) [BQU57]" assay_result=5.33

###

experimental details: Pharmacokinetics after single intraperitoneal injection
Format: in vivo
condition summary: mouse, blood, ip; 50.0 mg/kg i.p., n = 3, nude mice
property label: half-life (min)

compound="Cc1nn(C)c2c1C(c1ccc(C(F)(F)F)cc1)C(C#N)=C(N)O2 (stereo not shown)" assay_result=90

###

assayed target: RalB-GDP (Homo sapiens, UniProt P11234, Q72L)
Construct: made in house
experimental details: Isothermal Titration Calorimetry (ITC)
Format: binding
condition summary: 25° C.; 50 mM sodium phosphate pH 7.6; 1% DMSO
property label: Kd (µM)

molecule="Cc1nn(C)c2c1C(c1ccc(C(F)(F)F)cc1)C(C#N)=C(N)O2 (stereo not shown)" property_label=Kd assay_result=7.7

###

experimental details: Pharmacokinetics after single intraperitoneal injection
Type: in vivo
condition summary: mouse, blood, ip; 50.0 mg/kg i.p., n = 3, nude mice; read-out: AUC0-5 hr
property label: AUC(0-t) (ng·h/mL)

molecule="Cc1nn(C)c2c1C(c1ccc(C(F)(F)F)cc1)C(C#N)=C(N)O2 (stereo not shown)" assay_result=28600

Measured values drawn from patent US11472812B2 for this set.
